species on record: Homo sapiens; assay: To identify inhibition of the IFN signalling (Jak-Stat) pathway via expression of an eGFP reporter gene under the control of an IFN-stimulated response element (ISRE) containing MxA promoter.; assay type: functional; design: scale not given: direction of the effect not stated beside the values; details: 30 µM
assayEndpoint: Percent Effect (%)
// return numeric value only (unit: %, not printed)

CC(=O)Nc1nc(C(=O)Nc2ccc(N3CCCCC3)nc2)cs1 has a reported Percent Effect of 11.2

O=C(Nc1ccccc1F)N(CCO)Cc1ccsc1 has a reported Percent Effect of 29.1

CC(NC(=O)NCC1(O)CCC1)c1ccc(OCC2CC2)c(F)c1 (stereo not drawn) has a reported Percent Effect of 14

CN(C(=O)c1cccc(C(=O)NS(C)(=O)=O)c1)c1ccccc1 has a reported Percent Effect of 4.53

COCCN(C)C(=O)Nc1ccc2c(ccn2CCOC)c1 has a reported Percent Effect of 1.75

New cases:
C[C@H](O)CNC(=O)c1cnc(-c2ccccc2)nc1O has a reported Percent Effect of -5.82

O=C1[C@H]2CN(Cc3nccs3)C[C@H]2CN1c1ccsc1 has a reported Percent Effect of -3.04

Cc1ccc(N(C)C2CCN(C(=O)CCc3ccco3)CC2)nn1 has a reported Percent Effect of 8.17

COc1ccc(-c2noc(CN3CCc4cncnc4C3)n2)cc1 has a reported Percent Effect of 8.69

CN(CC(N)=O)S(=O)(=O)c1ccc(F)cc1Cl has a reported Percent Effect of 16.6

---

biological target: Chromo domain-containing protein 1 (Saccharomyces cerevisiae (strain ATCC 204508 / S288c) (Baker's yeast)); experiment: ScCHD-1 Enzyme Inhibition Assay; format: functional; parameters: scale not given: in the data most compounds retested in dose-response had high values; conditions: 30 µM
Measured Percent Effect by item
// return numeric value only (unit: %, not printed)

CCN(Cc1nc2c(cnn2C)c(=O)[nH]1)c1ccc(OC)c(OC)c1 has a reported Percent Effect of -22.5

CCc1ccc(NC(=O)c2cnc(N3CCN(C)CC3)nc2C)cc1 has a reported Percent Effect of -10.8

CCOc1ncccc1NC(=O)N1CCc2ccccc2C1 has a reported Percent Effect of 9.66

Cc1cnn(CC2CCCN2Cc2nc3ccccc3nc2C)c1 (stereo not given) has a reported Percent Effect of -12.8

Cc1cnn(C2CCCN(C(=O)c3cccc(Cn4ccnc4)c3)C2)c1 (stereo not given) has a reported Percent Effect of -30.4

New cases:
N#Cc1ccccc1C(=O)N1CCC2(CC(=O)NC2=O)C1 (stereo not given) has a reported Percent Effect of -3.81

Cc1cnn(C2CN(CC(=O)NCc3ccccn3)C2)c1 has a reported Percent Effect of -5.97

CNS(=O)(=O)Cc1ccc(CNC(=O)c2ccc(C)[nH]c2=O)cc1 has a reported Percent Effect of -6.56

Cc1ccc(-n2nnc(CC(=O)N3CCSCC3)c2C)cc1 has a reported Percent Effect of -9.71

c1ccc(CCN2CCN(c3ccc4nncn4n3)CC2)nc1 has a reported Percent Effect of -0.331

CCC(C)CNc1ccc2oc(COC)nc2c1 (stereo not given) has a reported Percent Effect of 4.53

CCOCCn1nc(C)cc1C(=O)N1CCOCC(CO)C1 (stereo not given) has a reported Percent Effect of -10.6

CCN(CC)Cc1cn2c(n1)CN(C(=O)c1cnccn1)CC2 has a reported Percent Effect of 0.514

CSC(C)C(=O)N1CCCN(Cc2cscn2)CC1 (stereo not given) has a reported Percent Effect of -13.2

Cc1nc(CN2CCCC(N(C)Cc3nnsc3Cl)C2)no1 (stereo not given) has a reported Percent Effect of -13.5

COc1cccc(CNCCc2cc(F)cc3c2OCOC3)c1 has a reported Percent Effect of -4.8

---

molecular target: Tyrosyl-tRNA synthetase, putative (Trypanosoma cruzi (strain CL Brener)) (UniProt Q4DSP6); assay: Trypanosoma cruzi tyrosyl tRNA synthetase (TcYRS) _High Tyrosine SOP; format: functional; parameters: scale not given: in the data most compounds retested in dose-response had high values; details: 30 µM
Sequence (Q4DSP6 as listed by the source): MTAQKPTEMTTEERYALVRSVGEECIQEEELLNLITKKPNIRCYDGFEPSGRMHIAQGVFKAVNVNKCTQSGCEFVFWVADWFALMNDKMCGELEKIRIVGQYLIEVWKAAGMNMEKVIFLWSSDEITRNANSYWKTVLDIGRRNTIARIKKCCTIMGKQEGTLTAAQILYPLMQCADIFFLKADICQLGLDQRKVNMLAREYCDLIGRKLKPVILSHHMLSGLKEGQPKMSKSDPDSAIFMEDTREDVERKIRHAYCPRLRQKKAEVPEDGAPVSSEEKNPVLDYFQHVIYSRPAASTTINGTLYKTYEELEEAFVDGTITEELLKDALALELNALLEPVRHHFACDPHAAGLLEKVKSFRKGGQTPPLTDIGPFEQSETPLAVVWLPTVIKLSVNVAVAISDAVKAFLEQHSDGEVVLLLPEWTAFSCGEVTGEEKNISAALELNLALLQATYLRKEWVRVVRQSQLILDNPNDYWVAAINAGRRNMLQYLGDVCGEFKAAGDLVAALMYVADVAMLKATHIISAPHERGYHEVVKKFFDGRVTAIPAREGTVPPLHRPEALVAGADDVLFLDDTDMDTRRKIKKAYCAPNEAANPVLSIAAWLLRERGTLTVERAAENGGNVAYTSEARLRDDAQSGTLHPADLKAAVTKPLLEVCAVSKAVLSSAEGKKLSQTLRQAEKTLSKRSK
assayEndpoint: Percent Effect (%)
// return numeric value only (unit: %, not printed)

Check out these entries, answers already filled in.
Cc1ccc(-c2ncc(C(=O)NCCNC(=O)C(C)C)s2)c(C)c1 has a reported Percent Effect of 4.43

Cc1nc(C)n(CC2CCCCN2CCCS(=O)(=O)N(C)C)n1 (centres undefined) has a reported Percent Effect of 4.76

COc1cccc2cc(CNC(=O)N3CCCC(O)C3)oc12 (centres undefined) has a reported Percent Effect of 3.45

Cc1ccccc1C1(CNc2nnc(C)c(C)c2C#N)CCOCC1 has a reported Percent Effect of 2.65

CCN1CC(C(=O)N2CCC(Oc3ccccc3C)CC2)CC1=O (centres undefined) has a reported Percent Effect of 3.12

Cc1cc(O)nc(C2CCCN(Cc3ccncc3)C2)n1 (centres undefined) has a reported Percent Effect of 1.07

Fc1cccc(CN2CCC(c3n[nH]c4ncccc34)CC2)c1F has a reported Percent Effect of 3.23

COCC1c2c(cnn2CC2CC2)CCN1Cc1nccs1 (centres undefined) has a reported Percent Effect of 4.17

COCc1cccc(CNC(=O)CN2CCCC2c2noc(C)n2)c1 (centres undefined) has a reported Percent Effect of 4.41

O=C(c1cc(Cl)c2c(c1)OCO2)N1CCN(c2ccccn2)CC1 has a reported Percent Effect of 7.53

New cases:
CCC1=N[C@@]2(CC[C@@H]3CN(CC4CC4)C[C@@H]32)C(=O)N1C has a reported Percent Effect of 0

CC(C)C1CN(c2ncccn2)CCC(=O)N1Cc1ccc(F)cc1 (centres undefined) has a reported Percent Effect of 7.37

c1ccc2oc(NC3CCCN(Cc4noc(C5CC5)n4)C3)nc2c1 (centres undefined) has a reported Percent Effect of 2.65

COc1ccnc(N2CCN(C(=O)Cc3ccc(C#N)cc3)CC2)n1 has a reported Percent Effect of 7.62

O=C(N1CCCO1)[C@@]12CCO[C@@H]1CCN(Cc1ccccc1)C2 has a reported Percent Effect of 4.17

CCS(=O)(=O)Nc1ccn(Cc2cccc(Cl)c2)n1 has a reported Percent Effect of 6.45

CCOCCn1c(=O)[nH]c2cc(C(=O)N(C)CCc3cn[nH]c3)ccc21 has a reported Percent Effect of 3.7

O=C(Cn1cccn1)NCC1(c2ccccc2)CC1 has a reported Percent Effect of -0.952

---

Measured Percent Effect by item
target: Arginase-2, mitochondrial (Homo sapiens); assay: in vitro enzyme assay to detect the production of urea directly proportional to the activity of Arginase II; format: functional; parameters: scale not given: in the data most compounds retested in dose-response had high values; settings: 33.3 µM
Report the figure along with its unit, number first.

// assay Arginase-2, mitochondrial (Homo sapiens), entry c1cnn(C2CN(Cc3nc(-c4ccsc4)no3)C2)c1 , Percent Effect value = 1.15%

Could you now consider this next compound?
// assay Arginase-2, mitochondrial (Homo sapiens), entry CCc1noc(C)c1C(=O)N1CCCC1Cn1cc(C)cn1 (stereo unspecified) , Percent Effect value = 0%

---

species: Homo sapiens; assay: To identify inhibition of the IFN signalling (Jak-Stat) pathway via expression of an eGFP reporter gene under the control of an IFN-stimulated response element (ISRE) containing MxA promoter.; type: functional; design: scale not given: direction of the effect not stated beside the values; conditions: 30 µM
assayEndpoint: Percent Effect (%)
// return numeric value only (unit: %, not printed)

CC(C)Cc1cc(C(=O)N2CCCC(n3cncn3)C2)[nH]n1 (stereo not drawn) has a reported Percent Effect of 0.485

Cc1ccc(NC2CCN(C(=O)COCC(F)(F)F)CC2)nn1 has a reported Percent Effect of 12.1

CN1CCN(C(=O)Cc2cccc(F)c2)Cc2cccnc21 has a reported Percent Effect of 6.92

Cc1cc(C)n(CC2CN(Cc3nc(-c4ccoc4)no3)CCO2)n1 (stereo not drawn) has a reported Percent Effect of 7.72

CCOC(CC)C(=O)NCCC(=O)N1CCN(c2ccccn2)CC1 (stereo not drawn) has a reported Percent Effect of -5.03

New cases:
CN1CCN(Cc2cn3c(n2)CN(Cc2cccnc2)CC3)CC1 has a reported Percent Effect of 16.3

---

target: Proteasome subunit beta (Trypanosoma cruzi); test: Trypanosoma cruzi proteasome chymotrypsin-like activity (TcProtChymo) assay.; format: functional; parameters: scale not given: in the data most compounds retested in dose-response had high values; conditions: 9.37 µM
assayEndpoint: Percent Effect (%)
// return numeric value only (unit: %, not printed)

Check out these entries, answers already filled in.
O=C1CC(c2ccncc2)c2c(c(C(=O)O)cn2-c2ccc(F)cc2)N1 (configuration not stated) has a reported Percent Effect of 13.7

CCC(C)c1noc(C2CCN(C(=O)c3cccs3)CC2)n1 (configuration not stated) has a reported Percent Effect of 13.8

Cc1nc(CN2CCN(C(=O)c3sccc3C3CC3)CC2)cs1 has a reported Percent Effect of 3.48

O=C(Cc1cccc(F)c1)NCCNCc1ccc2c(c1)CCO2 has a reported Percent Effect of -1.52

COc1ccccc1CNC(=O)N1CCCC(NS(C)(=O)=O)C1 (configuration not stated) has a reported Percent Effect of 12.8

COc1ccc(CCNC(=O)NC2CCCC2)cc1OC has a reported Percent Effect of 13.3

Cc1cc(CNC(=O)NC(C)c2ccc(N3CCOCC3)cc2)no1 (configuration not stated) has a reported Percent Effect of 11.8

Cc1nnc2n1CCN(C(=O)c1cc(Cl)c[nH]1)C2 has a reported Percent Effect of 2.84

NC(=O)c1ccc(NC(=O)CCN2CCCC(N3CCCC3)C2)cc1 (configuration not stated) has a reported Percent Effect of 9.38

CCNC(=O)Nc1ccc2c(ccn2CC(=O)N(CC)CC)c1 has a reported Percent Effect of 12.5

New cases:
CCn1cc(CN2CCCN(C(=O)CCCn3cncn3)CC2)cn1 has a reported Percent Effect of 5.91

CCn1cc2c(n1)CN(Cc1ccoc1)CC2COCC1CC1 (configuration not stated) has a reported Percent Effect of 7.69

O=C(c1ccoc1)N1CC[C@H]2OCC[C@@]2(COc2ncccc2F)C1 has a reported Percent Effect of 6.78

COCCN1C[C@@H]2CN(Cc3ccsc3)CCC[C@]2(C(=O)O)C1 has a reported Percent Effect of 16.5

Cc1cccnc1NCCNC(=O)[C@H]1CNC[C@@H](C(=O)N2CCCC2)C1 has a reported Percent Effect of 10.5

O=C(CCn1ccc2cc(Br)ccc21)NCc1ccc(C(=O)O)cc1 has a reported Percent Effect of 16.2

Cc1noc(C)c1CNCC1CCN(CC(O)c2ccccc2)CC1 (configuration not stated) has a reported Percent Effect of 9.09

Source: ChEMBL document CHEMBL3988442
